Origin of values: patent US10526320B2

List of EC50 values.
target: PPAR Delta (Homo sapiens, UniProt Q03181); assay: PathHunter NHR protein interaction / nuclear translocation agonist test, PPAR Delta; format: cell-based; conditions: agonist mode; read-out: PPAR Delta EC50
Sequence (Q03181 whole entry): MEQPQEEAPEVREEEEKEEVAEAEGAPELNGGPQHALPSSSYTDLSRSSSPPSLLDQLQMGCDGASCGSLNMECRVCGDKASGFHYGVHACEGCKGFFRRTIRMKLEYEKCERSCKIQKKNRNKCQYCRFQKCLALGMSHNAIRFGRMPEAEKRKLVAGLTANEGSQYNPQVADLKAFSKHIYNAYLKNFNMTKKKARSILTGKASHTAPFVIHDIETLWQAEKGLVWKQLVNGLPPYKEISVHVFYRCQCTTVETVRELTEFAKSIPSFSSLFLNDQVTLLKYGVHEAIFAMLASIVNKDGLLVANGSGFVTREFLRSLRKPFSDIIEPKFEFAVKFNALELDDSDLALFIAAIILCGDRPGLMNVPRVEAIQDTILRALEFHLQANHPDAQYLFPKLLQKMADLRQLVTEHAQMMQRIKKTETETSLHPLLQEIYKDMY

Using the record for CSc1ccc(C(=O)[C@H]2CN(C(=O)OC3CCC(C)CC3)C[C@@H]2Cc2cc(C)c(OC(C)(C)C(=O)O)c(C)c2)cc1 (mixture of isomers) , report its EC50.
100 to 150 nM

Another molecule to check: CSc1ccc(C(=O)C2CN(S(C)(=O)=O)CC2c2cc(C)c(OC(C)(C)C(=O)O)c(C)c2)cc1 (single isomer, unassigned)
> 250 nM

Another molecule to check: Cc1cc(CC2CN(C(=O)Oc3ccccc3)CC2C(=O)c2ccc(F)cc2)cc(C)c1OC(C)(C)C(=O)O (single isomer, unassigned)
< 100 nM

Another molecule to check: CSc1ccc(C(=O)C2CN(C(=O)Oc3ccccc3Cl)C[C@@H]2c2cc(C)c(OC(C)(C)C(=O)O)c(C)c2)cc1 (mixture of isomers)
> 250 nM

Another molecule to check: CSc1ccc(C(=O)C2CN(C(=O)Oc3ccccc3)CC2CCc2ccc(OC(C)(C)C(=O)O)c(F)c2)cc1 (single isomer, unassigned)
100 to 150 nM

Another molecule to check: Cc1cc(CCC2CN(C(=O)Oc3ccccc3)CC2C(=O)c2ccc(Cl)cc2)cc(C)c1OC(C)(C)C(=O)O (single isomer, unassigned) [Compound 66]
< 100 nM

* * *

molecular target: PPAR Alpha (Homo sapiens, UniProt Q07869); experiment: PathHunter NHR protein interaction / nuclear translocation agonist test, PPAR Alpha; format: cell-based; conditions: read-out: PPAR Alpha Maximum Activation Response %
Sequence (Q07869 whole entry): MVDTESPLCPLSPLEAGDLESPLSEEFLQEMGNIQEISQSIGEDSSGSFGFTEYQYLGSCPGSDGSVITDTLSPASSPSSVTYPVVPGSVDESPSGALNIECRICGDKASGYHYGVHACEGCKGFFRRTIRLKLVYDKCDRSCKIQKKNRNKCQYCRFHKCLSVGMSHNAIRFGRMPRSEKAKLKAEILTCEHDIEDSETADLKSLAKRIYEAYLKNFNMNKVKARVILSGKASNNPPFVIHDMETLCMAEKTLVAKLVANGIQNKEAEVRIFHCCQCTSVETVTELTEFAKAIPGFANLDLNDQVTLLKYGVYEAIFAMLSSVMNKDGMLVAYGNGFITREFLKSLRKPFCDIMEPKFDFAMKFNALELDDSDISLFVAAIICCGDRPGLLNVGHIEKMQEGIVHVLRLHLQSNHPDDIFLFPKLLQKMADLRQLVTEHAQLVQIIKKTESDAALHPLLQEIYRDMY
result-type: Emax

Some entries whose results are on file:
- molecule: "CSc1ccc(C(=O)C2CN(C(=O)Oc3ccc(Br)cc3)CC2Cc2cc(C)c(OC(C)(C)C(=O)O)c(C)c2)cc1 (stereo not drawn) [Compound 29]"
  Emax: "80 to 100%"
- molecule: "CSc1ccc(C(=O)C2CN(C3COC3)C[C@@H]2CCc2cc(C)c(OC(C)(C)C(=O)O)c(C)c2)cc1 (mixture of isomers) [Compound 73]"
  Emax: "80 to 100%"

In the following, a different molecule is considered.
Using the record for COc1ccc(OC(=O)N2CC(C(=O)c3ccc(SC)cc3)[C@@H](c3cc(C)c(OC(C)(C)C(=O)O)c(C)c3)C2)cc1 (mixture of isomers) [Compound 15] , report its Emax.
80 to 100%

* * *

List of EC50 values.
target: PPAR Delta (Homo sapiens); test: PathHunter NHR protein interaction / nuclear translocation agonist test, PPAR Delta; assay type: cell-based; conditions: agonist mode; read-out: PPAR Delta EC50

Some entries whose results are on file:
- compound: "CSc1ccc(C(=O)[C@@H]2CN(C(=O)Oc3ccc(Cl)cc3F)C[C@H]2c2cc(C)c(OC(C)(C)C(=O)O)c(C)c2)cc1 (single isomer, unassigned) [Compound 42]"
  reported-measurement: "< 100 nM"
- compound: "CSc1ccc(C(=O)[C@@H]2CN(C(=O)Oc3ccc(C(C)C)cc3)C[C@H]2c2cc(C)c(OC(C)(C)C(=O)O)c(C)c2)cc1 (single isomer, unassigned) [Compound 40]"
  reported-measurement: "100 to 150 nM"

In the following, a different compound is considered.
Using the record for CSc1ccc(C(=O)C2CN(C(=O)Oc3ccc(Cl)cc3)CC2Cc2cc(C)c(OC(C)(C)C(=O)O)c(C)c2)cc1 (single isomer, unassigned) [Compound 27] , report its EC50.
< 100 nM

* * *

List of pEC50 values.
target: PPAR Delta (Homo sapiens); assay: PathHunter NHR protein interaction / nuclear translocation agonist test, PPAR Delta; format: cell-based; conditions: agonist mode; read-out: PPAR Delta EC50
pEC50: −log10 of the molar value.

Some entries whose results are on file:
- compound: "CSc1ccc(C(=O)C2CN(C(=O)Oc3ccc(Cl)cc3)CC2c2cc(C)c(OC(C)(C)C(=O)O)c(C)c2)cc1 (single isomer, unassigned) [Compound 14]"
  assayed-target: "PPAR Delta (Homo sapiens)"
  reported-measurement: "> 7.00"
- compound: "CSc1ccc(C(=O)[C@@H]2CN(C(=O)Oc3ccc(Cl)c(Cl)c3)C[C@H]2c2cc(C)c(OC(C)(C)C(=O)O)c(C)c2)cc1 (single isomer, unassigned)"
  assayed-target: "PPAR Delta (Homo sapiens)"
  reported-measurement: "> 7.00"

In the following, a different compound is considered.
Using the record for Cc1cc(CCC2CN(C(=O)Oc3ccccc3)CC2C(=O)c2ccc(F)cc2)cc(C)c1OC(C)(C)C(=O)O (single isomer, unassigned) , report its pEC50.
> 7.00

* * *

molecular target: PPAR Delta (Homo sapiens); assay: PathHunter NHR protein interaction / nuclear translocation agonist test, PPAR Delta; format: cell-based; conditions: agonist mode; read-out: PPAR Delta EC50
pEC50: −log10 of the molar value.
result-type: pEC50

- compound: "CSc1ccc(C(=O)C2CN(C(=O)Oc3ccc(F)cc3)CC2c2cc(C)c(OC(C)(C)C(=O)O)c(C)c2)cc1 (single isomer, unassigned)"
  pEC50: "6.70 to 6.82"
- compound: "CSc1ccc(C(=O)C2CN(C(=O)OC(C)C)CC2c2cc(C)c(OC(C)(C)C(=O)O)c(C)c2)cc1 (single isomer, unassigned)"
  pEC50: "< 6.60"
- compound: "CSc1ccc(C(=O)C2CN(C(=O)Oc3ccccc3)CC2CCc2ccc(OC(C)(C)C(=O)O)cc2)cc1 (single isomer, unassigned)"
  pEC50: "6.70 to 6.82"
- compound: "CSc1ccc(C(=O)C2CN(C(=O)Oc3ccc(F)cc3)CC2Cc2cc(C)c(OC(C)(C)C(=O)O)c(C)c2)cc1 (single isomer, unassigned)"
  pEC50: "> 7.00"
- compound: "Cc1cc(CCC2CN(C(=O)Oc3ccccc3)CC2C(=O)c2ccc(Cl)cc2)cc(C)c1OC(C)(C)C(=O)O (single isomer, unassigned) [Compound 65]"
  pEC50: "> 7.00"

In the following, a different compound is considered.
Using the record for COC(=O)N1CC(CCc2cc(C)c(OC(C)(C)C(=O)O)c(C)c2)C(C(=O)c2ccc(SC)cc2)C1 (single isomer, unassigned) , report its pEC50.
> 7.00

* * *

target: PPAR Gamma (Homo sapiens, UniProt P37231); test: PathHunter NHR protein interaction / nuclear translocation agonist test, PPAR Gamma; format: cell-based; conditions: read-out: PPAR Gamma Maximum Activation Response %
Sequence (P37231 whole entry): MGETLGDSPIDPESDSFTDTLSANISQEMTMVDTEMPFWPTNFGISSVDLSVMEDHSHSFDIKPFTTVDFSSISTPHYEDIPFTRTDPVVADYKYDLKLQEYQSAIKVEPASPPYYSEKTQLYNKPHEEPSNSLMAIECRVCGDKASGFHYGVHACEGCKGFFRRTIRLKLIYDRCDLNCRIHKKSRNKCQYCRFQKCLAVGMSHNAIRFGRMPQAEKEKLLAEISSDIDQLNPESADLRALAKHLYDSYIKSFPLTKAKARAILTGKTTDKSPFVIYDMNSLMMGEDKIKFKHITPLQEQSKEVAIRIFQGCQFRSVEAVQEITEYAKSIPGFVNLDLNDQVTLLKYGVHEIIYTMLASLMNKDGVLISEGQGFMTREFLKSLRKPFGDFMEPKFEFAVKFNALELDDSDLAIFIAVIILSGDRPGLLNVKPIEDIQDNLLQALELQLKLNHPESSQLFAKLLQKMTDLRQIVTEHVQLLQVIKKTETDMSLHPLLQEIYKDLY
result-type: Emax

Using the record for CSc1ccc(C(=O)C2CN(C(=O)OC(C)C)CC2CCc2cc(C)c(OC(C)(C)C(=O)O)c(C)c2)cc1 (single isomer, unassigned) , report its Emax.
50 to 80%

Another compound to check: CSc1ccc(C(=O)C2CN(C(=O)Oc3ccc(Cl)cc3)CC2c2cccc(OC(C)(C)C(=O)O)c2)cc1 (single isomer, unassigned)
80 to 100%

Another compound to check: CSc1ccc(C(=O)C2CN(C(=O)Oc3ccc(Br)cc3)CC2c2cc(C)c(OC(C)(C)C(=O)O)c(C)c2)cc1 (stereo not shown)
80 to 100%

* * *

target: UniProt:Q07869; experiment: PathHunter NHR protein interaction / nuclear translocation agonist test, PPAR Alpha; format: cell-based; conditions: agonist mode; read-out: PPAR Alpha EC50
pEC50: −log10 of the molar value.
result-type: pEC50

Some entries whose results are on file:
- molecule: "CSc1ccc(C(=O)[C@H]2CN(C(=O)Nc3ccc(Cl)cc3)C[C@@H]2c2cc(C)c(OC(C)(C)C(=O)O)c(C)c2)cc1 (racemic)"
  pEC50: "> 7.00"
- molecule: "Cc1cc(CC2CN(C(=O)Oc3ccccc3)CC2C(=O)c2ccc(Cl)cc2)cc(C)c1OC(C)(C)C(=O)O (single isomer, unassigned)"
  pEC50: "> 7.00"
- molecule: "CSc1ccc(C(=O)C2CN(C(=O)Oc3ccccc3)CC2Cc2ccc(OC(C)(C)C(=O)O)c(C)c2)cc1 (single isomer, unassigned)"
  pEC50: "6.70 to 6.82"
- molecule: "COC(=O)N1CC(CCc2cc(C)c(OC(C)(C)C(=O)O)c(C)c2)C(C(=O)c2ccc(SC)cc2)C1 (single isomer, unassigned)"
  pEC50: "> 7.00"
- molecule: "CSc1ccc(C(=O)C2CN(C(=O)Oc3ccc(F)cc3)CC2Cc2cc(C)c(OC(C)(C)C(=O)O)c(C)c2)cc1 (single isomer, unassigned)"
  pEC50: "> 7.00"

Using the record for COc1ccc(OC(=O)N2CC(C(=O)c3ccc(SC)cc3)[C@@H](c3cc(C)c(OC(C)(C)C(=O)O)c(C)c3)C2)cc1 (mixture of isomers) , report its pEC50.
6.70 to 6.82

Another molecule to check: CSc1ccc(C(=O)C2CN(S(N)(=O)=O)CC2c2cc(C)c(OC(C)(C)C(=O)O)c(C)c2)cc1 (single isomer, unassigned)
6.60 to 6.70

Another molecule to check: CSc1ccc(C(=O)[C@@H]2CN(S(C)(=O)=O)C[C@H]2CCc2cc(C)c(OC(C)(C)C(=O)O)c(C)c2)cc1 (single isomer, unassigned)
< 6.60
